- tgt: GABA-A receptor; anion channel
- assay-info: Displacement of [3H]flunitrazepam from GABA-A receptor of rat cerebellar tissue
- Format: protein-complex assay
pIC50: −log10 of the molar value.
Catalogue of pIC50 values
property-measured: pIC50

>>> measurement("O=C1CC[C@@H]([C@@H]2c3ccccc3CCN2C(=O)OCc2ccccc2)O1")
7.22
>>> measurement("CC1=C[C@H]([C@@H]2c3ccccc3CCN2C(=O)OCc2ccccc2)OC1=O")
4.77
>>> measurement("CC1=C[C@@H]([C@@H]2c3ccccc3CCN2C(=O)OCc2ccccc2)OC1=O")
5.15

----------
- tgt: GABA-A receptor; anion channel (Rattus norvegicus) (UniProt O09028+P15431+P18506+P18508+P19969+P20236+P23574+P23576+P28471+P28473+P30191+P62813+P63079+P63138+Q91ZM7+Q9ES14)
- assay-info: In vitro displacement of [35S]TBPS from Gamma-aminobutyric acid A receptor of rat brain membrane preparations at 10 uM
Catalogue of Displacement values
property-measured: Displacement (%)

>>> measurement("O=C1C=C[C@@H]([C@@H]2c3cc4c(cc3CCN2C(=O)OCc2ccccc2)OCO4)O1")
19
>>> measurement("O=C1CC[C@@H]([C@@H]2c3ccccc3CCN2C(=O)OCc2ccccc2)O1")
11
>>> measurement("CC1=C[C@H]([C@@H]2c3ccccc3CCN2C(=O)OCc2ccccc2)OC1=O")
20
>>> measurement("CC1=C[C@@H]([C@@H]2c3ccccc3CCN2C(=O)OCc2ccccc2)OC1=O")
16
>>> measurement("CN1C(=O)CN=C(c2ccccc2)c2cc(Cl)ccc21")
25
>>> measurement("COc1cc2c(cc1OC)[C@@H]([C@H]1C=CC(=O)O1)N(C(=O)OCc1ccccc1)CC2")
5
>>> measurement("O=C1C=C[C@@H]([C@@H]2c3ccccc3CCN2C(=O)OCc2ccccc2)O1")
14
>>> measurement("O=C1C=C[C@H]([C@@H]2c3ccccc3CCN2C(=O)OCc2ccccc2)O1")
18
>>> measurement("CC1=C[C@H]([C@@H]2c3cc4c(cc3CCN2C)OCO4)OC1=O")
1
>>> measurement("O=C1C=C[C@H]([C@@H]2c3cc4c(cc3CCN2C(=O)OCc2ccccc2)OCO4)O1")
18
>>> measurement("COc1cc2c(cc1OC)[C@@H]([C@@H]1C=CC(=O)O1)N(C(=O)OCc1ccccc1)CC2")
5
